- Assay Method Text: Encapsulation rate of the LNP encapsulating nucleic acid (Quant-iT RiboGreen RNA Assay Kit)
- Assay type: physicochemical
- Condition Details: LNP encapsulating siRNA 2 (Table 13)
Would you mind telling me the reported Encapsulation rate (%) of each entry?
Quick note: give the figure in %, leave out the unit.

Qu. Provide measured Encapsulation rate (%) value, entry: "CCCCCC(CCCCC)CCOC(=O)CCCCCCCC(CCCCCCCC(=O)OCCC(CCCCC)CCCCC)OC(=O)COC1CC2(C1)CN(C)C2"
Ans. 96.9

Qu. Provide measured Encapsulation rate (%) value, entry: "CCCCCC(CCCCC)CCOC(=O)CCCCCCCC(CCCCCCCC(=O)OCCC(CCCCC)CCCCC)OC(=O)CO[C@H]1C[C@H](N(C)C)C1"
Ans. 99.0

Qu. Provide measured Encapsulation rate (%) value, entry: "CCCCCC(CCCCC)CCOC(=O)CCCCCCCC(CCCCCCCC(=O)OCCC(CCCCC)CCCCC)OC(=O)COCCN1CCN(C)CC1"
Ans. 98.5

Qu. Provide measured Encapsulation rate (%) value, entry: "CCCCCC(CCCCC)CCOC(=O)CCCCCCCC(CCCCCCCC(=O)OCCC(CCCCC)CCCCC)OC(=O)COC1CCN(CCO)CC1"
Ans. 98.0

Qu. Provide measured Encapsulation rate (%) value, entry: CCCCCC(CCCCC)CCOC(=O)CCCCCCCC(CCCCCCCC(=O)OCCC(CCCCC)CCCCC)OC(=O)C1CC(N(C)C)CCO1 (stereo not drawn)
Ans. 94.2

Qu. Provide measured Encapsulation rate (%) value, entry: CCCCCC(CCCCC)CCOC(=O)CCCCCCCC(CCCCCCCC(=O)OCCC(CCCCC)CCCCC)OC(=O)COC1CCN(C)C1 (stereo not drawn)
Ans. 91.2

###

- Assay Method Text: Encapsulation rate of the LNP encapsulating nucleic acid (Quant-iT RiboGreen RNA Assay Kit)
- Format: physicochemical
- Condition Details: LNP encapsulating siRNA 2 (Table 13)
Would you mind telling me the reported Encapsulation rate (%) of each entry?
Quick note: give the figure in %, leave out the unit.

Qu. Provide measured Encapsulation rate (%) value, entry: "CCCCCC(CCCCC)COC(=O)CCCCCCCC(CCCCCCCC(=O)OCC(CCCCC)CCCCC)OC(=O)COC1CCN(C)CC1"
Ans. 91.6

Qu. Provide measured Encapsulation rate (%) value, entry: "CCCCCC(CCCCC)CCOC(=O)CCCCCCCC(CCCCCCCC(=O)OCCC(CCCCC)CCCCC)OC(=O)COC1CCN(CCCCO)CC1"
Ans. 97.3

Qu. Provide measured Encapsulation rate (%) value, entry: CCCCCCCC(CCCCCCC)OC(=O)CCCCCCCC(CCCCCCCC(=O)OCCC(CCCCC)CCCCC)OC(=O)COC1CCN(C)CC1 (racemic)
Ans. 95.1

Qu. Provide measured Encapsulation rate (%) value, entry: "CCCCCC(CCCCC)CCOC(=O)CCCCCCCC(CCCCCCCC(=O)OCCC(CCCCC)CCCCC)OC(=O)COC1CC(C)(C)N(C)C(C)(C)C1"
Ans. 100

Qu. Provide measured Encapsulation rate (%) value, entry: "CCCCCC(CCCCC)CCOC(=O)CCCCCCCC(CCCCCCCC(=O)OCCC(CCCCC)CCCCC)NC(=O)OCCOC1CCN(C)CC1"
Ans. 100

Qu. Provide measured Encapsulation rate (%) value, entry: "CCCCCC(CCCCC)CCOC(=O)CCCCCCCC(CCCCCCCC(=O)OCCC(CCCCC)CCCCC)OC(=O)CO[C@H]1CC[C@H](N(C)C)CC1"
Ans. 100

Qu. Provide measured Encapsulation rate (%) value, entry: CCCCCC(CCCCC)CCOC(=O)CCCCCCCC(CCCCCCCC(=O)OCCC(CCCCC)CCCCC)OC(=O)CO[C@@H]1CCC[C@@H](N(C)C)C1 (racemic)
Ans. 98.2

Qu. Provide measured Encapsulation rate (%) value, entry: "CCCCCC(CCCCC)CCOC(=O)CCCCCCCC(CCCCCCCC(=O)OCCC(CCCCC)CCCCC)NC(=O)COC1CCN(C)CC1"
Ans. 99.8

###

- Assay Method Text: Encapsulation rate of the LNP encapsulating nucleic acid (Quant-iT RiboGreen RNA Assay Kit)
- Format: physicochemical
- Condition Details: LNP encapsulating siRNA 2 (Table 13)
Experimental Endpoint: Encapsulation rate (%)
Quick note: give the figure in %, leave out the unit.

Qu. Provide measured Encapsulation rate (%) value, entry: CCCCCC(CCCCC)CCOC(=O)CCCCCCCC(CCCCCCCC(=O)OCCC(CCCCC)CCCCC)OC(=O)OCCOC1CCN(C)CC1 [Compound I-73]
Ans. 98.0

Qu. Provide measured Encapsulation rate (%) value, entry: CCCCCC(CCCCC)CCOC(=O)CCCCCCCC(CCCCCCCC(=O)OCCC(CCCCC)CCCCC)OC(=O)C1(C)CC(N(C)C)CCO1 (racemic) [II-17]
Ans. 95.9

Qu. Provide measured Encapsulation rate (%) value, entry: CCCCCC(CCCCC)CCOC(=O)OCCCCCCCCC(CCCCCCCCOC(=O)OCCC(CCCCC)CCCCC)OC(=O)COC1CCN(C)CC1 [Compound I-82]
Ans. 97.8

Qu. Provide measured Encapsulation rate (%) value, entry: CCCCCC(CCCCC)CCOC(=O)CCCCCCCC(CCCCCCCC(=O)OCCC(CCCCC)CCCCC)OC(=O)COC1CC2CC1N(C)C2 (racemic) [II-12]
Ans. 91.9

Qu. Provide measured Encapsulation rate (%) value, entry: CCCCCC(CCCCC)CCOC(=O)CCCCCCCC(CCCCCCCC(=O)OCCC(CCCCC)CCCCC)OC(=O)C1CCC2(CCN(C)CC2)O1 (racemic) [II-14]
Ans. 93.3

Qu. Provide measured Encapsulation rate (%) value, entry: CCCCCC(CCCCC)CCOC(=O)CCCCCCCC(CCCCCCCC(=O)OCCC(CCCCC)CCCCC)OC(=O)[C@@H]1COC2(CCN(C)CC2)O1 [II-8]
Ans. 96.3

Qu. Provide measured Encapsulation rate (%) value, entry: CCCCCC(CCCCC)CCOC(=O)CCCCCCCC(CCCCCCCC(=O)OCCC(CCCCC)CCCCC)OC(=O)COCCN(C)CCO [II-21]
Ans. 97.1

Qu. Provide measured Encapsulation rate (%) value, entry: CCCCCC(CCCCC)CCOC(=O)CCCCCCCC(CCCCCCCC(=O)OCCC(CCCCC)CCCCC)OC(=O)COC1CCCN(C)CC1 (racemic) [II-10]
Ans. 99.3

Qu. Provide measured Encapsulation rate (%) value, entry: CCCCCC(CCCCC)CCOC(=O)CCCCCCCC(CCCCCCCC(=O)OCCC(CCCCC)CCCCC)C(=O)NCCOC1CCN(C)CC1 [II-6]
Ans. 100

Qu. Provide measured Encapsulation rate (%) value, entry: CCCCCC(CCCCC)CCOC(=O)CCCCCCCC(CCCCCCCC(=O)OCCC(CCCCC)CCCCC)C(=O)OCCOC1CCN(C)CC1 [Compound I-81]
Ans. 87.4

Qu. Provide measured Encapsulation rate (%) value, entry: CCCCCCCCCC(CCCCCCCCC(=O)OCC(CCCC)CCCCCC)OC(=O)C1CCN(C)CC1 (stereo not shown) [YS-119, reference compound]
Ans. 76.0

Qu. Provide measured Encapsulation rate (%) value, entry: CCCCCC(CCCCC)CCOC(=O)CCCCCCCC(CCCCCCCC(=O)OCCC(CCCCC)CCCCC)OC(=O)COCCN(C)C [Compound I-58]
Ans. 91.1

Qu. Provide measured Encapsulation rate (%) value, entry: CCCCCC(CCCCC)CCOC(=O)CCCCCCCC(CCCCCCCC(=O)OCCC(CCCCC)CCCCC)OC(=O)COC1CN(C)C1 [II-5]
Ans. 92.1

###

- Assay Method Text: Average particle size of the LNP encapsulating nucleic acid (Zetasizer Nano ZS)
- Type: physicochemical
- Condition Details: LNP encapsulating siRNA 2 (Table 13)
For each record, check the reported Particle size (nm): if it is below 80 nm write met, else write not met.

Qu. State whether 80 nm exceeds Particle size (nm) recorded for "CCCCCC(CCCCC)COC(=O)CCCCCCCC(CCCCCCCC(=O)OCC(CCCCC)CCCCC)OC(=O)COC1CCN(C)CC1" .
Ans. met

Qu. State whether 80 nm exceeds Particle size (nm) recorded for "CCCCCC(CCCCC)CCOC(=O)CCCCCCCC(CCCCCCCC(=O)OCCC(CCCCC)CCCCC)OC(=O)COC1CC(C)(C)N(C)C(C)(C)C1" .
Ans. not met

Qu. State whether 80 nm exceeds Particle size (nm) recorded for CCCCCC(CCCCC)CCOC(=O)CCCCCCCC(CCCCCCCC(=O)OCCC(CCCCC)CCCCC)OC(=O)COC1CCCN(C)CC1 (racemic) .
Ans. met

Qu. State whether 80 nm exceeds Particle size (nm) recorded for "CCCCCC(CCCCC)CCOC(=O)CCCCCCCC(CCCCCCCC(=O)OCCC(CCCCC)CCCCC)C(=O)NCCOC1CCN(C)CC1" .
Ans. met

Qu. State whether 80 nm exceeds Particle size (nm) recorded for CCCCCC(CCCCC)CCOC(=O)CCCCCCCC(CCCCCCCC(=O)OCCC(CCCCC)CCCCC)OC(=O)C1(C)CC(N(C)C)CCO1 (racemic) .
Ans. not met

Cited source: patent US20240180954A1
